Tested on: non-replicating cultures of M. tuberculosis H37Rv transformed with lux ABCDE
assay summary: microbe, parasite or virus in culture
Format: cell-based, Mycobacterium tuberculosis
particulars: ratio of LORA MIC90 to MABA MIC90
Kindly supply the reported MIC90 LORA/MABA values for the records listed here.
Answer with a number only.

Given the compound CO[C@H]1/C=C/O[C@@]2(C)Oc3c(C)c(O)c4c(=O)c(c5oc6cc(N7CCN(C(=O)C(C)(C)C)CC7)cc(OCc7ccc(CN8CCOCC8)cc7)c6nc-5c4c3C2=O)NC(=O)/C(C)=C\C=C\[C@H](C)[C@H](O)[C@@H](C)[C@@H](O)[C@@H](C)[C@H](OC(C)=O)[C@@H]1C [Compound 17f] , what is its reported MIC90 LORA/MABA?
14

Try this compound next: CO[C@H]1/C=C/O[C@@]2(C)Oc3c(C)c(O)c4c(=O)c(c5oc6cc(C=O)cc(N7CCN(C)CC7)c6nc-5c4c3C2=O)NC(=O)/C(C)=C\C=C\[C@H](C)[C@H](O)[C@@H](C)[C@@H](O)[C@@H](C)[C@H](OC(C)=O)[C@@H]1C [Compound 30b]
3.1

Note, next up: CO[C@H]1/C=C/O[C@@]2(C)Oc3c(C)c(O)c4c(=O)c(c5oc6cc(N7CCC(C(=O)O)CC7)cc(C)c6nc-5c4c3C2=O)NC(=O)/C(C)=C\C=C\[C@H](C)[C@H](O)[C@@H](C)[C@@H](O)[C@@H](C)[C@H](OC(C)=O)[C@@H]1C [Compound 29f]
4.5

----------
Test system: non-replicating cultures of M. tuberculosis H37Rv transformed with lux ABCDE
assay summary: microbe, parasite or virus in culture
Format: cell-based, Mycobacterium tuberculosis
particulars: ratio of LORA MIC90 to MABA MIC90
Please go through the items and note down their MIC90 LORA/MABA.
Lab note: record the figure alone, no unit after it.

Suppose we examine the molecule CO[C@H]1/C=C/O[C@@]2(C)Oc3c(C)c(O)c4c(=O)c(c5oc6cc(N7CCN(C(=O)c8cccc(-c9ccccn9)c8)CC7)cc(OCc7ccc(CN8CCOCC8)cc7)c6nc-5c4c3C2=O)NC(=O)/C(C)=C\C=C\[C@H](C)[C@H](O)[C@@H](C)[C@@H](O)[C@@H](C)[C@H](OC(C)=O)[C@@H]1C [Compound 17r] ; what MIC90 LORA/MABA value has been reported?
5.7

Thanks! And CO[C@H]1/C=C/O[C@@]2(C)Oc3c(C)c(O)c4c(=O)c(c5oc6cccc(OCc7cccc(CN8CCN(C(=O)CN9CCOCC9)CC8)c7)c6nc-5c4c3C2=O)NC(=O)/C(C)=C\C=C\[C@H](C)[C@H](O)[C@@H](C)[C@@H](O)[C@@H](C)[C@H](OC(C)=O)[C@@H]1C [Compound 11f] ?
15

----------
Test system: M. tuberculosis transformed with luxABCDE
assay summary: microbe, parasite or virus in culture
Format: cell-based, Mycobacterium tuberculosis
particulars: Mycobacterium tuberculosis, 168 h; […]; ≥99% reduction in luminescence; read-out: MBC99 Day 7 (Lux Assay) MBC
measured attribute: MBC (µM)
Provide only the numeric value, understood in µM.

Value lookup for MBC; key = CO[C@H]1/C=C/O[C@@]2(C)Oc3c(C)c(O)c4c(=O)c(c5oc6cc(N7CCN(C(=O)c8cccc(-c9ccccn9)c8)CC7)cc(C)c6nc-5c4c3C2=O)NC(=O)/C(C)=C\C=C\[C@H](C)[C@H](O)[C@@H](C)[C@@H](O)[C@@H](C)[C@H](OC(C)=O)[C@@H]1C [Compound 29b]
0.05

Same for CO[C@H]1/C=C/O[C@@]2(C)Oc3c(C)c(O)c4c(=O)c(c5oc6cc(N7CCOC(CN(C)C)C7)cc(OCc7ccc(CN8CCOCC8)cc7)c6nc-5c4c3C2=O)NC(=O)/C(C)=C\C=C\[C@H](C)[C@H](O)[C@@H](C)[C@@H](O)[C@@H](C)[C@H](OC(C)=O)[C@@H]1C (stereo partly drawn) [Compound 17o]
0.128

Source of measurements: patent US20250188092A1
